Data origin: PubChem BioAssay AID1347073

- METHOD SUMMARY: qHTS of TDP-43 Inhibitors: NCGC Sytravon Library Screen; note: nearly all actives have a fitted effect of over 55% in size
- SETUP CONDITIONS: yeast TDP-43 toxicity rescue, BacTiter-Glo growth, 24 h; series mostly up to 46.1 µM
The campaign covered roughly 45,000 compounds. About 200 (0.44%) were called active. About 7% were inconclusive and are not listed. Calls come from the whole dose curve; as a rule, active = well fitted activation curve with a large enough effect; inconclusive = small, poorly fitted or top-dose-only effect; inactive = no such curve, though single readings can be large or run the other way. This excerpt belongs to a sample that is enriched for actives.
Pick from true (1) (active), false (0) (inactive) when you respond.

Challenge: Which outcome was assigned to O=C(c1ccc(F)cc1)N1CCC(n2nnc3ccccc32)CC1 in this test?
Response given: false (0)

Challenge: Kindly provide the recorded test outcome for the following molecule: CC1CN(c2nc(-c3ccccc3)nnc2-c2ccccc2)CC(C)O1 (stereo not drawn)
Response given: true (1)

Challenge: Dear colleague, could you share the recorded outcome for c1cc(-c2ccc3[nH]ccc3c2)n2ccnc2c1 when you have a moment?
Response given: false (0)

Challenge: How did this test come out for CN(C)C(CNC(=O)c1cccc(C#N)c1)c1ccco1 (stereo not drawn) ?
Response given: false (0)

Challenge: Could you check what this test reported for Cn1cc(CN2CCCCC2c2ccccn2)c(-c2ccc3c(c2)OCCO3)n1 (stereo not drawn) ?
Response given: false (0)

Challenge: Tell me the recorded outcome of this test for COc1cc(C(c2c(NC(=O)c3ccco3)sc(C)c2C)N2CCOCC2)cc(OC)c1OC (stereo not drawn) .
Response given: false (0)

Challenge: Entry N/C(=N/O)c1cccn1Cc1ccccc1[N+](=O)[O-] : call = ?
Response given: false (0)

Challenge: In this assay, the call recorded for CC(C)(C)c1ccccc1NC(=O)CN1C(=O)NC2(CCCC2)C1=O was what?
Response given: false (0)

Challenge: Per the records of this test, what outcome belongs to CCOC(=O)C1CCN(c2ccc(C(=O)O)cc2[N+](=O)[O-])CC1 ?
Response given: false (0)

Challenge: Hello, I am checking results. What call was entered for CCOc1ccc(C(C)=O)cc1CSc1nnc(-c2ccncc2)n1CCOC ?
Response given: false (0)

Challenge: Record lookup: outcome of this test for COCCCNc1ccn2nc(-c3ccc(CC(C)C)cc3)cc2n1 ?
Response given: false (0)

Challenge: What was the test verdict on CC(=O)C1=C(C)NC2=C(C(=O)CC(C)(C)C2)C1C (stereo not drawn) ?
Response given: false (0)

Challenge: I'd appreciate the recorded outcome for CCc1cc(-c2nnc(SCC(=O)NC3CC3)n2C)cs1 from this test.
Response given: false (0)

Challenge: What is the recorded call for this molecule in the test? CC1CN(C(=S)SCC(=O)c2ccccc2)CC(C)O1 (stereo not drawn)
Response given: false (0)

Challenge: Record request — test call for CC(CN1CCC(n2nccc2NC(=O)C2CCCC2)CC1)c1ccccc1 (stereo not drawn)
Response given: false (0)

Challenge: Outcome logged for CC(C)N(C)C(=O)CCc1nnc(CCc2c[nH]c3ccccc23)o1 in this assay:
Response given: false (0)

Challenge: Outcome? CC(C)=CCN1CCN(Cc2ccc(Oc3ncccn3)cc2)CC1CCO (stereo not drawn)
Response given: false (0)

Challenge: What did the test return for COc1ccc(C(=O)Nc2ccc(N3CCC(C)CC3)cc2)cc1Br ?
Response given: false (0)

Challenge: Which result was noted for this molecule in the test: COC(=O)c1ccc(CN2CCC(CO)(Cc3ccc(OC)cc3)CC2)cc1
Response given: false (0)

Challenge: Hello, I am checking results. What call was entered for CC1(C(=O)NS(=O)(=O)Cc2cccc(Cl)c2)CCN1C(=O)Cc1ccc(Cl)cc1Cl (stereo not drawn) ?
Response given: false (0)

Challenge: Status in this test for O=[N+]([O-])c1ccc(N2CCN(c3ccc(O)cc3)CC2)c(Cl)c1 ?
Response given: true (1)

Challenge: Status in this test for COc1ccc(-n2cnnc2SCC(=O)Nc2cccc(S(N)(=O)=O)c2)cc1 ?
Response given: false (0)

Challenge: Recorded test outcome, item O=C(NCc1ccc(F)cc1)c1cc(C2CCCCN2C(=O)c2cccs2)on1 (stereo not drawn)
Response given: false (0)
